Test Description: Oral pharmacokinetic research in SD rats (plasma and liver, LC/MS/MS)
Type: in vivo
Condition Context: male, Sprague-Dawley (SD), rat, po, intragastric, 10 mg/kg, plasma, read-out: Half-life period T½ (converted)
Parameter Measured: half-life (h)

INSERT INTO assay_data (molecule, parameter_measured, quantity_unit, numeric_result) VALUES
  ('CCOc1ccc(F)cc1[C@H](Cn1c(=O)n(C(C)(C)C(=O)O)c(=O)c2c(C)c(C#N)sc21)OC1CCOCC1 [Example 19]', 'half-life', 'h', 3.39);

====

Test Description: Oral pharmacokinetic research in SD rats (plasma and liver, LC/MS/MS)
Assay type: in vivo
Condition Context: male, Sprague-Dawley (SD), rat, oral, intragastric, 10 mg/kg, liver, 0.5 h after administration, read-out: drug concentration in the liver
Parameter Measured: concentration at 0.5 h (ng/mL)

INSERT INTO assay_data (smiles_notation, numeric_result) VALUES
  ('CCOc1ccc(F)cc1[C@H](Cn1c(=O)n(C(C)(C)C(=O)O)c(=O)c2c(C)c(C#N)sc21)OC1CCOCC1', 46800);

====

Target Or System: recombinant human ACC2 (Homo sapiens (Human), UniProt O00763)
Sequence (O00763 whole entry): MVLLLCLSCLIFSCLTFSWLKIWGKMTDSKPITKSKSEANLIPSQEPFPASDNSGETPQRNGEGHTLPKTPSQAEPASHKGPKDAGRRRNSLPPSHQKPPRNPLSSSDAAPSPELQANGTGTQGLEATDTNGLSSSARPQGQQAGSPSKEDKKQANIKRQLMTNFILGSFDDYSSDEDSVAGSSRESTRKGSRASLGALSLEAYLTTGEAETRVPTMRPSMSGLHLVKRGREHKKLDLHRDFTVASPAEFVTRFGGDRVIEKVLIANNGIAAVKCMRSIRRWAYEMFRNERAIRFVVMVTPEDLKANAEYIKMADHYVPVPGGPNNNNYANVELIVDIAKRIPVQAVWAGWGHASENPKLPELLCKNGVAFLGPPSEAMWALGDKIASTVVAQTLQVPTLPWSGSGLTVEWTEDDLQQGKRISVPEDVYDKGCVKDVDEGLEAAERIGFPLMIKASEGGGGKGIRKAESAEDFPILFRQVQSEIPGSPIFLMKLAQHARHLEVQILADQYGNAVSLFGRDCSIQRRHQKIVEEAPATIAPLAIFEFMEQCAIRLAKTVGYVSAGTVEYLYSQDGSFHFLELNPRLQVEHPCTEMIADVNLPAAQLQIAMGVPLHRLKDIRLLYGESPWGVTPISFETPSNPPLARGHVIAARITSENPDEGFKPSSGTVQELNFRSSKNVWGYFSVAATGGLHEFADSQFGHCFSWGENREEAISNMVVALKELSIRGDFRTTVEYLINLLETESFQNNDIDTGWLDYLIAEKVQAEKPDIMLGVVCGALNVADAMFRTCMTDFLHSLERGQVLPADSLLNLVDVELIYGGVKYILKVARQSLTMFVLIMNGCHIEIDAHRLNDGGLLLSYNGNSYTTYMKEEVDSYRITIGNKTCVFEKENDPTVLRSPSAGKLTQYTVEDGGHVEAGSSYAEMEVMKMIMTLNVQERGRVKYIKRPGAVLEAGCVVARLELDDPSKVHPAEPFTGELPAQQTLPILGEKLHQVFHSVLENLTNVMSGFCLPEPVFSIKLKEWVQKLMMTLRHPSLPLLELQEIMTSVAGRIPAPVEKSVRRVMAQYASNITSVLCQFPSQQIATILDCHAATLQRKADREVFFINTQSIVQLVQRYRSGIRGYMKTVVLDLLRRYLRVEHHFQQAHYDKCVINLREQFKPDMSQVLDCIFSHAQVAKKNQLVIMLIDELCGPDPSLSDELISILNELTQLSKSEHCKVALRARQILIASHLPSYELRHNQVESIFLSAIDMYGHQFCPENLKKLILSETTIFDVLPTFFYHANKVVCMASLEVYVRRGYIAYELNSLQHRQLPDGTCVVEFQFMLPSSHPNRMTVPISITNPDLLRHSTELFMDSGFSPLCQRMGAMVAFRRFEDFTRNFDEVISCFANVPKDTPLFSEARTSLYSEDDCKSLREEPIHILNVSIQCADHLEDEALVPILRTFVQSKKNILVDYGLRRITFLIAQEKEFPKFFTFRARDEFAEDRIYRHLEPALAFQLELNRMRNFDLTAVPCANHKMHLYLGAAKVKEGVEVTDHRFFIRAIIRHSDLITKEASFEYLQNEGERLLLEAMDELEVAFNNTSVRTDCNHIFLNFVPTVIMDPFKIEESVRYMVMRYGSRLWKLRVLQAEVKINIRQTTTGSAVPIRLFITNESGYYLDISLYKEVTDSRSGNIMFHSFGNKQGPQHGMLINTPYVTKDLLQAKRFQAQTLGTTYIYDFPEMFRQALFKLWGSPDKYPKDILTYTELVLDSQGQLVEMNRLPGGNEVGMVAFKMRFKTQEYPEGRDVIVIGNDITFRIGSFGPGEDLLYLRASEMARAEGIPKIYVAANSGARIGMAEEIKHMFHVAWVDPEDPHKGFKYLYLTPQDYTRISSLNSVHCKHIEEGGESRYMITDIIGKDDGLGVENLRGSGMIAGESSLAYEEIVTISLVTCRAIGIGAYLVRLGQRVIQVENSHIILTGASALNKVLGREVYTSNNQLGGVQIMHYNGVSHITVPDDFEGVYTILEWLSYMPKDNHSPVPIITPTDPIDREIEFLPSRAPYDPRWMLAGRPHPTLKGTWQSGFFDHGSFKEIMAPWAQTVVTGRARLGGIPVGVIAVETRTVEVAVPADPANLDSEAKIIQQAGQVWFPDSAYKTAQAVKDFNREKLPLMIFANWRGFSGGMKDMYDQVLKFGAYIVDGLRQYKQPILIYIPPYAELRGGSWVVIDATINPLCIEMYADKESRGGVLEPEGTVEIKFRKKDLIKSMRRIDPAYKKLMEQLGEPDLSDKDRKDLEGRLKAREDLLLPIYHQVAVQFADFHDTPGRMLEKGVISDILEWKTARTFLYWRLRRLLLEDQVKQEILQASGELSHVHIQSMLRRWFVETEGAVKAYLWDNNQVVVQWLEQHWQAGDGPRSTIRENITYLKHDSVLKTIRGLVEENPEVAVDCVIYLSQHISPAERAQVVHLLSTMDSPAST
Test Description: Inhibition of enzymatic activity of ACC2 (ADP-Glo chemiluminescence)
Type: biochemical
Condition Context: recombinant human ACC2 protein 2 nM, ATP 20 μM, acetyl-CoA 10 μM, NaHCO3 30 mM
Parameter Measured: IC50 (nM)

INSERT INTO measurements (smiles_notation, parameter_measured, quantity_unit, numeric_result) VALUES
  ('Cc1c(C#N)sc2c1c(=O)n(C(C)(C)C(=O)O)c(=O)n2C[C@H](OC1CCOCC1)c1cc(F)ccc1OCCF', 'IC50', 'nM', 22),
  ('CCOc1ccc(F)cc1[C@H](Cn1c(=O)n(C(C)(C)C(=O)O)c(=O)c2c(C)c(C#N)sc21)OC1CCOCC1', 'IC50', 'nM', 6);

====

Test Description: Oral pharmacokinetic research in SD rats (plasma and liver, LC/MS/MS)
Type: in vivo
Condition Context: male, Sprague-Dawley (SD), rat, po, intragastric, 10 mg/kg, plasma, read-out: Blood concentration Cmax
Parameter Measured: Cmax (ng/mL)

INSERT INTO assay_data (smiles_notation, parameter_measured, quantity_unit, numeric_result) VALUES
  ('CCOc1ccc(F)cc1[C@H](Cn1c(=O)n(C(C)(C)C(=O)O)c(=O)c2c(C)c(C#N)sc21)OC1CCOCC1', 'Cmax', 'ng/mL', 920);

====

Test Description: Oral pharmacokinetic research in SD rats (plasma and liver, LC/MS/MS)
Assay type: in vivo
Condition Context: male, Sprague-Dawley (SD), rat, po, intragastric, 10 mg/kg, plasma, read-out: Curve area AUC0-∞
Parameter Measured: AUC(0-inf) (ng·h/mL)

INSERT INTO results (molecule, parameter_measured, quantity_unit, numeric_result) VALUES
  ('CCOc1ccc(F)cc1[C@H](Cn1c(=O)n(C(C)(C)C(=O)O)c(=O)c2c(C)c(C#N)sc21)OC1CCOCC1 [Example 19]', 'AUC(0-inf)', 'ng·h/mL', 1940);

====

Target Or System: recombinant human ACC1 (Homo sapiens (Human), UniProt Q13085)
Test Description: Inhibition of enzymatic activity of ACC1 (ADP-Glo chemiluminescence)
Type: biochemical
Condition Context: recombinant human ACC1 protein 2 nM, ATP 20 μM, acetyl-CoA 10 μM, NaHCO3 30 mM
Parameter Measured: IC50

INSERT INTO results (compound, result) VALUES
  ('CCOc1ccc(F)cc1[C@H](Cn1c(=O)n(C(C)(C)C(=O)O)c(=O)c2c(C)c(C#N)sc21)OC1CCOCC1 [Example 19]', '2.7 nM'),
  ('Cc1c(C#N)sc2c1c(=O)n(C(C)(C)C(=O)O)c(=O)n2CC(OC1CCOCC1)c1cc(F)ccc1OCC#N (stereo not drawn) [Example 17]', '20.7 nM'),
  ('Cc1c(C#N)sc2c1c(=O)n(C(C)(C)C(=O)O)c(=O)n2C[C@H](OC1CCOCC1)c1cc(F)ccc1OCCF [Example 21]', '6.4 nM'),
  ('CCOc1ccc(F)cc1C(Cn1c(=O)n(C(C)(C)C(=O)O)c(=O)c2c(C)c(C#N)sc21)OC1CCOCC1 (stereo not drawn) [Example 15]', '4.4 nM'),
  ('COc1ccccc1C(Cn1c(=O)n(C(C)(C)C(=O)O)c(=O)c2c(C)c(C#N)sc21)OC1CCOCC1 (stereo not drawn) [Example 1]', '38 nM'),
  ('COc1ccc(F)cc1C(Cn1c(=O)n(C(C)(C)C(=O)O)c(=O)c2c(C)c(C#N)sc21)OC1CCOCC1 (stereo not drawn) [Example 4]', '16.5 nM'),
  ('COc1ccc(F)cc1[C@H](Cn1c(=O)n(C(C)(C)C(=O)O)c(=O)c2c(C)c(C#N)sc21)OC1CCOCC1 [Example 11]', '15 nM'),
  ('Cc1c(C#N)sc2c1c(=O)n(C(C)(C)C(=O)O)c(=O)n2CC(OC1CCOCC1)c1ccccc1OCC1CC1 (stereo not drawn) [Example 13]', '36 nM'),
  ('COc1ccccc1[C@H](Cn1c(=O)n(C(C)(C)C(=O)O)c(=O)c2c(C)c(C#N)sc21)OC1CCOCC1 [Example 3]', '11.6 nM'),
  ('Cc1c(C#N)sc2c1c(=O)n(C(C)(C)C(=O)O)c(=O)n2CC(OC1CCOCC1)c1cc(F)ccc1OCCF (stereo not drawn) [Example 14]', '7.9 nM'),
  ('COc1ccccc1[C@@H](Cn1c(=O)n(C(C)(C)C(=O)O)c(=O)c2c(C)c(C#N)sc21)OC1CCOCC1 [Example 2]', '16 nM'),
  ('CCOc1ccccc1C(Cn1c(=O)n(C(C)(C)C(=O)O)c(=O)c2c(C)c(C#N)sc21)OC1CCOCC1 (stereo not drawn) [Example 6]', '21 nM');
